Target System: Flpin-293-PDE4B2 cells (Homo sapiens, UniProt Q07343)
Sequence (Q07343 1-564 isoform Q07343-2): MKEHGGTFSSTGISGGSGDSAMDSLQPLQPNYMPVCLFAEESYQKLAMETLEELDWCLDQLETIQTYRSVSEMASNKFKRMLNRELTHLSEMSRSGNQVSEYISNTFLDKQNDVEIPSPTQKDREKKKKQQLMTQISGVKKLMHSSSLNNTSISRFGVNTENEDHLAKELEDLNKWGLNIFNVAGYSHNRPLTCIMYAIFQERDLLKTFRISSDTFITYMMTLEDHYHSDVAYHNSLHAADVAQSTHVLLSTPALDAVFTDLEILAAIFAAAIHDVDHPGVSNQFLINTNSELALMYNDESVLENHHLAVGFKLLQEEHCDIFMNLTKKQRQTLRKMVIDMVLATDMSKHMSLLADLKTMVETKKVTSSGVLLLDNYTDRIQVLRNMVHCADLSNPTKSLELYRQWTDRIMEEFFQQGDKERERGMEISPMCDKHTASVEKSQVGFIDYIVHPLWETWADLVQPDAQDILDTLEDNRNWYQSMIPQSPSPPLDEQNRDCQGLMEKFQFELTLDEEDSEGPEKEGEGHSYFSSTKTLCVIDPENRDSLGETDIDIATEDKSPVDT
Assay Overview: cell-based
Condition Parameters: read-out: Cell Inhibition % @100 nM, 100 nM, Flpin-293-PDE4B2 cells
Observable: inhibition at 0.1 µM (%)
Answers are plain numbers, in %.

# example entries with known answers
Molecule	Observable	Assay Result
[O-][S+]1CCc2nc(N3CCC4=C(COc5ccccc54)C3)nc(NC3(CO)CCC3)c21 (stereo not shown)	inhibition at 0.1 µM	86.5
[O-][S+]1CCc2nc(N3CCc4cc(N5CC6CC5C6)ccc4C3)nc(NC3(CO)CCC3)c21 (stereo not shown)	inhibition at 0.1 µM	98.6
[O-][S+]1CCc2nc(N3CCc4cc(N5CCCC5)ccc4C3)nc(NC3(CO)CCC3)c21 (stereo not shown)	inhibition at 0.1 µM	98.2

Each of the following entries comes with a recorded value; kindly state inhibition at 0.1 µM for each.
1. [O-][S+]1CCc2nc(N3Cc4ccc(Cl)cc4C3)nc(NC3(CO)CCC3)c21 (stereo not shown)
2. [O-][S+]1CCc2nc(N3CCc4cc(N5C[C@H]6COC[C@H]6C5)ccc4C3)nc(NC3(CO)CCC3)c21 (stereo partly shown)
3. [O-][S+]1CCc2nc(N3CC[C@H]4c5ccc(Cl)cc5OC[C@H]4C3)nc(NC3(CO)CCC3)c21 (stereo partly shown)
4. CC1(O)CCN(c2ccc3c(c2)CCN(c2nc4c(c(NC5(CO)CCC5)n2)[S+]([O-])CC4)C3)C1 (stereo not shown)

33.2
98.9
73.4
98.4

Each molecule below has a recorded value; state its inhibition at 0.1 µM.
1. [O-][S+]1CCc2nc(N3CCc4cc(N5CCCC5)ccc4C3)nc(N3CCC[C@H]3CO)c21 (stereo partly shown)
2. [O-][S+]1CCc2nc(N3CCc4cc(N5CC6COCC6C5)ccc4C3)nc(NC3(CO)CCC3)c21 (stereo not shown)
3. C[C@H]1c2ccc(N3CCCC3)cc2CCN1c1nc2c(c(NCc3cnn(C)c3)n1)[S+]([O-])CC2 (stereo partly shown)

[96.6, 99.7, 100]
